Target: RanGTP-importin-beta complex (human Ran / KPNB1)
Assay: disruptors of RanGTP/KPNB1 binding – biochemical, FRET, CFP/YFP, cell-free homogeneous, confirmation (AID 2823)
Settings: CFP-Ran/YFP-importin-beta FRET ratio
Activity calls are given as the source filed them. How the calls were made is not given here.
Outcomes: yes (active), no (inactive)

Compound | Group
O=c1cc(N2CCc3ccccc3C2)[nH]c(=O)n1C1CCCCC1 | no
CCn1c(=O)cc(N2CCCCC2)[nH]c1=O | no
O=C(CN1CCN(C/C=C/c2ccccc2)CC1)NC(=O)NC1CCCCC1 | no
NNC(=O)c1cc2nc(-c3cccs3)cc(C(F)(F)F)n2n1 | no
N#C/C(=C\c1ccc(O)c(Br)c1)C(=O)NCc1ccccc1 | yes
CC(=O)c1sc2nc(C)c3c(c2c1N)CCCC3 | yes
Cn1c(=O)cc(N2CCCCC2)[nH]c1=O | no
COc1ccc(-n2cnc3cc(NCc4ccco4)ccc32)cc1 | no
CC1Cc2cc(S(=O)(=O)NCc3ccccc3)ccc2N1C(=O)C1CC1 (configuration not stated) | no
Cc1ccccc1-n1c(=O)cc(N2CC(C)OC(C)C2)[nH]c1=O (configuration not stated) | no
COc1ccc2cc(-c3nc4ccccc4n3C)c(=O)oc2c1 | yes
CC1(C)CC(=O)C=C(Nc2ccccc2F)C1 | no

====

Molecular target: RanGTP-importin-beta complex (human Ran / KPNB1)
Experiment: disruptors of RanGTP/KPNB1 binding – biochemical, FRET, CFP/YFP, cell-free homogeneous, confirmation (AID 2823)
Conditions: CFP-Ran/YFP-importin-beta FRET ratio
Active and inactive are the calls of the source. How the calls were made is not given here.
Measured IC50, listed per entry.

Molecule | IC50
Cc1sc2c(c1C)C(=O)NC(c1ccccc1F)N2 (stereo not given) | > 50 µM (inactive)
Cc1cccc(NS(=O)(=O)c2ccc(C(=O)N3CCCCCC3)cc2)c1C | > 50 µM (inactive)
CCOC(=O)/C(C#N)=C\c1ccc(N2CCN(C)CC2)cc1 | 15 µM
CC(=O)c1c(N2CCN(C)CC2)nc(=S)n(-c2cc(C)ccc2C)c1C | > 50 µM (inactive)
CN1CCCN(Cc2cccc3ccccc23)CC1 | > 50 µM (inactive)
O=c1nc(-c2ccccc2Cl)c2cc(F)ccc2[nH]1 | > 50 µM (inactive)
COc1ccccc1C1CC(c2ccc(Cl)cc2)Nc2nc(N)nn21 (stereo not given) | > 50 µM (inactive)
COc1ccccc1C(=O)NCCNc1nc2cc(C)cc(C)c2cc1C#N | 39.5 µM
COc1ccc2c(c1)C(c1ccc(C)o1)=NNC(c1cccnc1)=N2 | > 50 µM (inactive)
CCCOC(=O)CSC1=C(C#N)C(c2ccccc2OC)C(C#N)C(=O)N1 (stereo not given) | > 50 µM (inactive)
Cc1cc(C)c(C#N)c(Nc2ccccc2C)n1 | > 50 µM (inactive)
CCOc1ccc(Nc2c3ccccc3nc3ccccc23)cc1 | > 50 µM (inactive)
O=C1/C(=C/c2cccs2)Sc2ccccc21 | > 50 µM (inactive)
CCCC(=O)NNc1c2ccccc2nc2ccccc12 | > 50 µM (inactive)
Cc1cc(Cl)c(S(=O)(=O)N2CCCC2)cc1OCC(=O)NC1CCCCC1 | > 50 µM (inactive)
COc1ccc2c(c1)O/C(=C\c1ccco1)C2=O | 18.3 µM
CCOC(=O)C1(CC2CCCCO2)CCN(C(=O)Nc2ccc3c(c2)OCO3)CC1 (stereo not given) | > 50 µM (inactive)
CCCCc1c(C)c(C#N)c2nc3ccccc3n2c1Nc1c(C)n(C)n(-c2ccccc2)c1=O | 45 µM
Cc1cc(C(=O)N2CCc3c([nH]c4ccccc34)C2c2c(F)cccc2Cl)no1 (stereo not given) | > 50 µM (inactive)
CC(=O)N1CCC(N(CCN2CCOCC2)C(=O)Nc2ccc(Cl)c(Cl)c2)CC1 | > 50 µM (inactive)
CCc1cc(=O)oc2c(CNCc3ccc(OC)cc3OC)c(O)c(Cl)cc12 | 14.4 µM
Cc1nc2ccc(NC(=O)c3nn(CC(C)C)c(=O)c4ccccc34)cc2s1 | > 50 µM (inactive)
CCOC(=O)C1=C(N)OC2=C(C(=O)CCC2)C1c1sccc1C (stereo not given) | > 50 µM (inactive)
COCCn1c(N)c(C(=O)OCc2ccccc2)c2nc3ccccc3nc21 | 46.2 µM
O=C(CN1C2CCCC1CC(NC(=O)c1ccco1)C2)Nc1ccccc1C(F)(F)F (stereo not given) | > 50 µM (inactive)
COc1ccc(C(=O)Cc2cnn(-c3ccccc3)c2)c(O)c1 | > 50 µM (inactive)
CC1(C)CC(=O)NC=C(c2ccccc2)C1 | > 50 µM (inactive)
CC(C)S(=O)(=O)c1nsc2nc(=O)c(/C=C3\C=Nc4ccccc43)c(N)n12 | 7.97 µM
CCN1C(=O)/C(=C2/Sc3ccccc3N2CCCS(=O)(=O)O)SC1=S | 15.2 µM
CC1=Nc2ccccc2/C1=C\c1nc(-c2ccc(F)cc2)oc1O | > 50 µM (inactive)
CCOC(=O)C1=C(N)Oc2ccc3ccccc3c2C1c1ccc(O)c(OC)c1 (stereo not given) | > 50 µM (inactive)
N#Cc1c(N)nc2c(c1-c1ccc(F)cc1)CCC2 | 11 µM
Cn1c(SCc2cccc([N+](=O)[O-])c2)nc2c(c1=O)SCC2 | > 50 µM (inactive)
COc1ccc(-c2cc(C(F)(F)F)n3nc(N)nc3n2)cc1 | 14.6 µM
CCOC(=O)c1c(NC(=O)CSc2nnc3c(n2)[nH]c2ccccc23)sc2c1CCN(C)C2 | > 50 µM (inactive)
O=C(NCC1CCN(Cc2ccccc2Cl)CC1)Nc1ccccc1F | > 50 µM (inactive)
CCc1ccc(S(=O)(=O)Nc2ccc(-c3nc4cccnc4s3)cc2)s1 | > 50 µM (inactive)
O=c1cc(CN2CCN(Cc3ccccc3)CC2)c2ccc(O)cc2o1 | 11.1 µM
COc1ccc(CNCc2c(O)c(Cl)cc3c(C)c(C)c(=O)oc23)c(OC)c1 | 6.06 µM
Cc1c(CC(=O)N2CCN(C(=O)C3COc4ccccc4O3)CC2)c(=O)oc2c(C)c(O)ccc12 (stereo not given) | 20.8 µM
COc1ccc(Cl)cc1S(=O)(=O)Nc1noc2ccccc12 | > 50 µM (inactive)
COCCN1C=C(C(=O)OC)C(c2ccc(Cl)cc2)C(C(=O)OC)=C1 | 9.78 µM
O=C(/C=C/c1ccccc1[N+](=O)[O-])N1CCN(c2ccc(F)cc2)CC1 | > 50 µM (inactive)
CCCSc1nnc(-c2c[nH]c3ccccc23)n1CC | > 50 µM (inactive)
CN(C)/C=N/c1nc2nccc(-c3cccs3)n2n1 | 38.5 µM

====

Target: RanGTP-importin-beta complex (human Ran / KPNB1)
Test: disruptors of RanGTP/KPNB1 binding – biochemical, FRET, CFP/YFP, cell-free homogeneous, confirmation (AID 2823)
Settings: CFP-Ran/YFP-importin-beta FRET ratio
Active and inactive are the calls of the source. How the calls were made is not given here.
Outcomes: label 1 = active, label 0 = inactive

Compound | Group
COc1cc(/C=N/NC(=O)c2cc(C)oc2C)ccc1O | label 0
CC(=O)Nc1cc(C(=O)N(C)Cc2ccco2)ccc1Sc1ccc(Cl)cc1 | label 0
COc1cc2c(cc1NC(=S)Nc1cccc3ccccc13)oc1ccccc12 | label 0
O=C(Cc1n[nH]c(=O)c2ccccc12)NCc1ccccn1 | label 0
NNc1nc2sc3c(c2c(=O)n1C1CCCCC1)CCN(Cc1ccccc1)C3 | label 1
N#CC1=C(N)SC(N)=C(C#N)C1c1cccc(Oc2ccccc2)c1 | label 0
O=C(O)c1cn(Cc2cccnc2)c(=O)c2ccccc12 | label 0
Oc1nc(Nc2ccc(F)cc2)sc1/C=C1\C=Nc2ccccc21 | label 0
Nc1nc(N2CCOCC2)nc(N(c2ccccc2)c2ccccc2)n1 | label 0
Cc1cccc(NC(=O)c2cc(S(=O)(=O)N(C)c3ccc(F)cc3)ccc2Cl)n1 | label 0
COCCCNC(=O)/C(C#N)=C/c1c(N2CCN(c3ccccc3)CC2)nc2ccccn2c1=O | label 1
Cc1cccc(N2C(=O)/C(=C/c3cccnc3)SC2=S)c1 | label 0
CC1=C(C(=O)OC(C)C)C(c2cccnc2)C2=C(CC(C)(C)CC2=O)N1 (configuration not stated) | label 1
O=c1[nH]c(-[n+]2ccc3ccccc3c2)c(/C=N/N=C(\[O-])c2ccccc2)s1 | label 0
COc1ccc2cc(C#N)c(N3CCN(C(=O)c4ccccc4C)CC3)nc2c1 | label 0
CC(C)(C)CN1CCC(n2nccc2NC(=O)c2ccccc2Cl)CC1 | label 0
CCN(CC)S(=O)(=O)c1ccc(/C=C/C(=O)Nc2ccc(F)cc2F)cc1 | label 0
COCC(=O)Nc1nnc(COc2ccc(Cl)cc2)s1 | label 0
CCc1ccc(N2C(=O)NC(=O)/C(=C\c3cc(C)n(-c4cc(C(=O)O)cc(C(=O)O)c4)c3C)C2=O)cc1 | label 0
CCCN1CCC2(CC1)C(C#N)=C(N)Oc1c2sc2nc(C)cc(C)c12 | label 0
CCN(C(=O)c1ccc(Cl)cc1[N+](=O)[O-])c1ccccc1C | label 0
Cc1ccc(-c2nc3cc(N)ccc3o2)cc1 | label 0

From: PubChem BioAssay AID2823
